biological target: Beta-lactamase OXA-1 (Escherichia coli); assay: Kinetic Assay; conditions: pH 7.2
pIC50: −log10 of the molar value.
endpoint: pIC50

(I) O=C(O)C1=CS[C@@H]2/C(=C\c3cc4n(n3)CSC4)C(=O)N12
(II) O=C(O)C1=CS[C@@H]2/C(=C\c3cn4c(n3)COCC4)C(=O)N12
Could you kindly indicate whether I or II has the higher pIC50 value? Return value: the label identifying the chosen record. I
(I: 7.52, II: 7.22)

----------
biological target: Beta-lactamase OXA-1 (Escherichia coli, UniProt P13661); assay: Kinetic Assay; conditions: pH 7.2
Sequence (P13661 whole entry): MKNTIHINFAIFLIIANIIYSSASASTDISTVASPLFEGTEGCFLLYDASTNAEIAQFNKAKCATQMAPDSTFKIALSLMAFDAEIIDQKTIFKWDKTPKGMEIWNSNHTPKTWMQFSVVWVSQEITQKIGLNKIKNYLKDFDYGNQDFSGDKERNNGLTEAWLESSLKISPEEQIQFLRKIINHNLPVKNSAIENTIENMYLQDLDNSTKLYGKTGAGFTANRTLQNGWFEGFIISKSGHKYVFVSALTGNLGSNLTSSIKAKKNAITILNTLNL
pKi: −log10 of the molar value.
endpoint: pKi

(a) O=C(O)C1=CS[C@@H]2/C(=C\c3cn4c(n3)COCC4)C(=O)N12
(b) O=C(O)C1=CS[C@@H]2/C(=C\c3cc4n(n3)CSC4)C(=O)N12
Exercise: compare a and b ; which one has the greater pKi? Answer format: the label of the selected item. b

Values were extracted from BindingDB's records for doi:10.1074/jbc.M113.533562.
